Ratio IC50 overview
molecular target: Mitogen-activated protein kinase 14 (Homo sapiens, UniProt Q16539); assay: Ratio of SB203580 IC50 to compound IC50 for inhibition of p38alpha MAPK
Sequence (Q16539 whole entry): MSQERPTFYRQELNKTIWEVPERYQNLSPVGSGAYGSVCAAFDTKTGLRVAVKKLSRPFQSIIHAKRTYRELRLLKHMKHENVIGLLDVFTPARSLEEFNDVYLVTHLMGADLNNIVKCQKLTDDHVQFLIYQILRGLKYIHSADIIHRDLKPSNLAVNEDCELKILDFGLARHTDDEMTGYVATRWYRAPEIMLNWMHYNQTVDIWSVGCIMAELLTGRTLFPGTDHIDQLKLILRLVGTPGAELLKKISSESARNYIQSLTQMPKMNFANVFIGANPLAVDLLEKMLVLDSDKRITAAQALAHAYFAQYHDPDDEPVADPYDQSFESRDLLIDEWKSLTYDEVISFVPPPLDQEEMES
recorded endpoint: Ratio IC50

record smiles	recorded endpoint	quantitative readout
Fc1ccc(-c2nc(-c3ccccc3)[nH]c2-c2ccnc3[nH]c4ccccc4c23)cc1	Ratio IC50	0.55
COCn1c(-c2ccccc2)nc(-c2ccc(F)cc2)c1-c1ccnc2[nH]ccc12	Ratio IC50	0.18
CS(=O)(=O)c1ccc(-c2nc(-c3ccc(F)cc3)c(-c3ccnc4[nH]c(-c5ccccc5)cc34)[nH]2)cc1	Ratio IC50	3.46
Fc1ccc(-c2nc(-c3ccccc3)[nH]c2-c2ncnc3[nH]cnc23)cc1	Ratio IC50	0.1
COc1ccc(-c2nc(-c3ccc(F)cc3)c(-c3ccnc4[nH]c(-c5ccccc5)cc34)[nH]2)cc1	Ratio IC50	0.67
Oc1ccc(-c2nc(-c3ccc(F)cc3)c(-c3ccnc4[nH]c(-c5ccccc5)cc34)[nH]2)cc1	Ratio IC50	19.7
Fc1ccc(-c2nc(-c3ccccc3)[nH]c2-c2ccnc3[nH]c(C4CCCCC4)cc23)cc1	Ratio IC50	2.07
COc1cc(-c2nc(-c3ccc(F)cc3)c(-c3ccnc4[nH]c(-c5ccccc5)cc34)[nH]2)cc(OC)c1OC	Ratio IC50	0.12
Fc1ccc(-c2[nH]c(-c3ccccc3)nc2-c2ccncc2)cc1	Ratio IC50	0.33
